study_target: human KCNK13 (Homo sapiens, UniProt Q9HB14)
Sequence (Q9HB14 1-408): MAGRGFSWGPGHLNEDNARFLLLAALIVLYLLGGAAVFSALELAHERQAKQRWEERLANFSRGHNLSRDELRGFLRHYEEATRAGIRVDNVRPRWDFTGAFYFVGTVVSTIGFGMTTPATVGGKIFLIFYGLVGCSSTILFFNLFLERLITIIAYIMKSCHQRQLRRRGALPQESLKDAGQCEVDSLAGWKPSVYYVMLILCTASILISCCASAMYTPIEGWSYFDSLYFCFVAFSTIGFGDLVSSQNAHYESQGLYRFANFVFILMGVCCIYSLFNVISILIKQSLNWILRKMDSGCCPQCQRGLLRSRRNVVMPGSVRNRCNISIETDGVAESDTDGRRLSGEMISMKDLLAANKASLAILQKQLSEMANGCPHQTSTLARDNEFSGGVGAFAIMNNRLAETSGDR
test_method_notes: KCNK13 antagonist activity, thallium flux FLIPR assay in HEK 293 cells stably expressing human KCNK13
measurement_conditions: HEK 293 cells stably expressing human KCNK13, Tl+ sensitive dye, compound 15 min before thallium sulfate, ten point curves; read-out: hKCNK13 IC50
property_measured: IC50

[[record]]
compound = "COc1ncc(Cl)cc1C(=O)N(C)C1CCc2ccccc21 (single isomer, unassigned) [Example 22]"
property_measured = "IC50"
observed_value = "≤ 500 nM"

[[record]]
compound = "CN(Cc1cccc(F)c1)C(=O)c1cc(Cl)cnc1OC(F)F"
property_measured = "IC50"
observed_value = "≤ 100 nM"

[[record]]
compound = "COc1ncc(Cl)cc1S(=O)(=O)N1CCOc2ccc(F)cc2C1"
property_measured = "IC50"
observed_value = "≤ 500 nM"

[[record]]
compound = "CN(Cc1cccc(F)c1F)C(=O)c1cc(Cl)cnc1OC(F)F"
property_measured = "IC50"
observed_value = "≤ 100 nM"

[[record]]
compound = "CN(C(=O)c1cc(Cl)cnc1OC(F)F)C1COc2ccccc21 (stereo not drawn)"
property_measured = "IC50"
observed_value = "≤ 500 nM"

[[record]]
compound = "CCN(Cc1cccc(F)c1)C(=O)c1cc(Cl)cnc1OC"
property_measured = "IC50"
observed_value = "≤ 1000 nM"

[[record]]
compound = "COc1cccc(CN(C)C(=O)c2cc(Cl)cnc2OC(F)F)c1"
property_measured = "IC50"
observed_value = "≤ 200 nM"

[[record]]
compound = "CN(Cc1cccc(Cl)c1)S(=O)(=O)c1cc(F)cnc1OC(F)F"
property_measured = "IC50"
observed_value = "≤ 200 nM"

[[record]]
compound = "COc1ncc(Cl)cc1C(=O)N(C)C1COc2cc(F)ccc21 (single isomer, unassigned) [Example 45]"
property_measured = "IC50"
observed_value = "≤ 5000 nM"

[[record]]
compound = "CN(Cc1cccc(F)c1F)S(=O)(=O)c1cc(F)cnc1OC(F)F"
property_measured = "IC50"
observed_value = "≤ 100 nM"


CN(C(=O)c1cc(Cl)cnc1OC(F)F)C1COc2cc(F)ccc21 (stereo not drawn) yielded IC50 of ≤ 500 nM

// field: IC50; key: COc1ncc(F)cc1C(=O)N(C)C(C)c1ccccc1F (single isomer, unassigned) [Example 6] ; value = ≤ 500 nM

Recorded result, COc1ncc(Cl)cc1S(=O)(=O)N1CCc2ccccc2C1 , IC50: ≤ 200 nM

Measured IC50 of CN(C(=O)c1cc(F)cnc1OC(F)F)C1COc2c(F)cccc21 (stereo not drawn) : ≤ 500 nM

// IC50 lookup, compound = C[C@H](c1cccc(F)c1)N(C)S(=O)(=O)c1cc(F)cnc1OC(F)F , result: ≤ 1000 nM

###

study_target: human KCNK13 (Homo sapiens, UniProt Q9HB14)
Sequence (Q9HB14 1-408): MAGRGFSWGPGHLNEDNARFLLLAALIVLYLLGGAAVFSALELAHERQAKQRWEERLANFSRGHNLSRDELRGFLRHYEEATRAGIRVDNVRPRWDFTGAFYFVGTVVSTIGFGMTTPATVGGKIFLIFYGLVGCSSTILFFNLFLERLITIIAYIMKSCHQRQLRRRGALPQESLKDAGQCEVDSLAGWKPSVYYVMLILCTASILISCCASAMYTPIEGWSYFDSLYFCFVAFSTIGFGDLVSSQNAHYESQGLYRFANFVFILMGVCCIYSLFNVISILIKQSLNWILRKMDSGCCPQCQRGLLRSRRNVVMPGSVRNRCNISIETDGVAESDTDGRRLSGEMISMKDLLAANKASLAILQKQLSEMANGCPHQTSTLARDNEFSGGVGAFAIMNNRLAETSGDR
test_method_notes: KCNK13 antagonist activity, thallium flux FLIPR assay in HEK 293 cells stably expressing human KCNK13
measurement_conditions: HEK 293 cells stably expressing human KCNK13, Tl+ sensitive dye, compound 15 min before thallium sulfate, ten point curves; read-out: hKCNK13 IC50
Protocol: 4. Biological Efficacy of Compounds of the Invention KCNK13 antagonist activity was determined by measuring changes in intracellular Thallium (Tl^+) concentrations using a Tl^+ sensitive fluorescent dye. The changes in fluorescent signal were monitored by Fluorescent Imaging Plate Reader (FLIPR™) technology available from Molecular Devices, LLC, US. KCNK13 mediated increases in intracellular Tl^+ concentration were readily detected by addition of a thallium sulfate Stimulus. […]
pIC50: −log10 of the molar value.
property_measured: pIC50

// worked examples, pIC50 included
[[record]]
compound = "COc1ncccc1C(=O)N(C)Cc1ccccc1F"
observed_value = "≥ 6.30"

[[record]]
compound = "COc1ncc(Cl)cc1C(=O)N(C)C1CCOc2ccccc21 (single isomer, unassigned) [Example 19]"
observed_value = "≥ 6.30"

[[record]]
compound = "CN(Cc1cccc(F)c1)C(=O)c1cc(F)cnc1OC(F)F"
observed_value = "≥ 7.00"

[[record]]
compound = "COc1ncc(F)cc1C(=O)N(C)C1CCOc2ccccc21 (single isomer, unassigned) [Example 15]"
observed_value = "≥ 6.30"

[[record]]
compound = "COc1nccc(C)c1C(=O)N(C)Cc1ccc(F)cc1F"
observed_value = "≥ 6.30"

[[record]]
compound = "CN(Cc1ccc(F)cc1F)C(=O)c1cc(F)cnc1OC(F)F"
observed_value = "≥ 7.00"


The reported human KCNK13 (Homo sapiens, UniProt Q9HB14) pIC50 of COc1ncc(Cl)cc1C(=O)N(C)Cc1c(F)cccc1F is ≥ 6.70

Item CN(Cc1cccc(Cl)c1)C(=O)c1cc(Cl)cnc1OC(F)F was tested on human KCNK13 (Homo sapiens, UniProt Q9HB14); the reported pIC50 is ≥ 7.00

Summary: O=S(=O)(c1cc(Cl)cnc1OC(F)F)N1CCOc2ccc(F)cc2C1 , human KCNK13 (Homo sapiens, UniProt Q9HB14), pIC50 = ≥ 6.30

I looked up COc1ncc(C)cc1S(=O)(=O)N1CCc2ccccc2C1 and its pIC50 for human KCNK13 (Homo sapiens, UniProt Q9HB14) was ≥ 6.70

Param item: CN(Cc1cccc(F)c1)S(=O)(=O)c1cc(Cl)cnc1OC(F)F ; param system: human KCNK13 (Homo sapiens, UniProt Q9HB14); output pIC50: ≥ 6.30

GET /values?item= CN(Cc1cc(F)cc(Cl)c1)C(=O)c1cc(Cl)cnc1OC(F)F &system= human KCNK13 (Homo sapiens, UniProt Q9HB14) returns pIC50: ≥ 6.70

###

study_target: human KCNK13 (Homo sapiens)
test_method_notes: KCNK13 antagonist activity, thallium flux FLIPR assay in HEK 293 cells stably expressing human KCNK13
measurement_conditions: HEK 293 cells stably expressing human KCNK13, Tl+ sensitive dye, compound 15 min before thallium sulfate, ten point curves; read-out: hKCNK13 IC50
Experimental: 4. Biological Efficacy of Compounds of the Invention KCNK13 antagonist activity was determined by measuring changes in intracellular Thallium (Tl^+) concentrations using a Tl^+ sensitive fluorescent dye. The changes in fluorescent signal were monitored by Fluorescent Imaging Plate Reader (FLIPR™) technology available from Molecular Devices, LLC, US. KCNK13 mediated increases in intracellular Tl^+ concentration were readily detected by addition of a thallium sulfate Stimulus. […]
property_measured: IC50

[[record]]
compound = "COc1ncc(F)cc1C(=O)N(C)Cc1ccccc1C#N [Example 36]"
observed_value = "≤ 500 nM"

[[record]]
compound = "COc1ncc(F)cc1C(=O)N(C)Cc1ccc(F)cc1F [Example 39]"
observed_value = "≤ 200 nM"

[[record]]
compound = "CCOc1ncc(Cl)cc1C(=O)N(C)C1CCc2ccccc21 (single isomer, unassigned) [Example 13]"
observed_value = "≤ 500 nM"


Could you now look at the following compound, please?
For this compound ( COc1ncc(Cl)cc1C(=O)N(C)C1COc2ccccc21 (single isomer, unassigned) [Example 26] ), measured IC50 is ≤ 500 nM

###

study_target: human KCNK13 (Homo sapiens, UniProt Q9HB14)
Construct: expressed in transfected cells
test_method_notes: KCNK13 antagonist activity, thallium flux FLIPR assay in HEK 293 cells stably expressing human KCNK13
Assay type: cell-based
measurement_conditions: HEK 293 cells stably expressing human KCNK13, Tl+ sensitive dye, compound 15 min before thallium sulfate, ten point curves; read-out: hKCNK13 IC50
property_measured: IC50

[[record]]
compound = "COc1ncc(Cl)cc1C(=O)N(C)Cc1ccccc1"
property_measured = "IC50"
observed_value = "≤ 0.1 µM"

[[record]]
compound = "COc1ncc(Cl)cc1C(=O)N(C)C1CCc2ccc(F)cc21 (single isomer, unassigned) [Example 21]"
property_measured = "IC50"
observed_value = "≤ 0.2 µM"

[[record]]
compound = "COc1ncc(Cl)cc1C(=O)N(C)C(C)c1cc(F)ccc1C#N (single isomer, unassigned) [Example 60]"
property_measured = "IC50"
observed_value = "≤ 5 µM"

[[record]]
compound = "CC(c1cccc(F)c1)N(C)C(=O)c1cc(F)cnc1OC(F)F (centres unmarked) [Example 83]"
property_measured = "IC50"
observed_value = "≤ 0.1 µM"


get_value(item= COc1ncc(Cl)cc1C(=O)N(C)C1COc2cc(F)ccc21 (single isomer, unassigned) [Example 46] , readout=IC50) returns ≤ 1 µM

Sample COc1ncc(Cl)cc1C(=O)N(C)C1COc2ccccc21 (single isomer, unassigned) [Example 25] ; IC50 observed: ≤ 0.5 µM

# IC50 of COc1ncc(F)cc1C(=O)N(C)C(C)c1ccc(F)cc1F (single isomer, unassigned) [Example 69] = ≤ 0.2 µM

COc1ncc(Cl)cc1C(=O)N(C)C1CCc2cccc(C#N)c21 (centres unmarked) yielded IC50 of ≤ 0.5 µM

Measured IC50, COc1ncc(F)cc1C(=O)N(C)C(C)c1cc(F)ccc1C#N (single isomer, unassigned) [Example 62] : ≤ 1 µM

Short answer for O=S(=O)(c1cc(F)cnc1OC(F)F)N1CCc2ccc(F)cc2C1 : IC50 was ≤ 0.2 µM

Record COc1ncc(F)cc1C(=O)N(C)C(C)c1ccccc1F (single isomer, unassigned) [Example 5] . Reported IC50: ≤ 0.5 µM

Given item CN(Cc1cccc(OC(F)F)c1)C(=O)c1cc(Cl)cnc1OC(F)F , the value recorded as its IC50 is ≤ 0.2 µM
